# Method Notes: NCI Yeast Anticancer Drug Screen. Data for the rad50 strain (AID 155);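 note: 0% = growth of vehicle-only cultures of the same strain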
# Details: S. cerevisiae rad50 strain growth inhibition; at 100.0 µM; active compounds read high
About 79,000 compounds went through this panel and 15% of them were active in at least one assay; those are over-represented in the sample as a whole.
Measured Endpoint: growth inhibition (%)
Enter your answer as a number in %; do not include the unit.

Before answering, review these 3 worked examples.
Compound	growth inhibition, %
CC(=O)OCc1ccc(O)c(C=O)c1	59
O=C1C=CC(=O)c2c(O)c(Nc3ccc(OC(F)(F)F)cc3)c(Cl)c(O)c21	89
Cc1nc(-[n+]2nc(-c3ccncc3)nn2-c2ccccc2)sc1C	58

Kindly review the next compound as well.
Lab book: growth inhibition of COc1cc(C2SCC(=O)N2c2ccc(-c3ccc(-n4c(-c5ccccc5)nc5ccccc5c4=O)cc3)cc2)cc(OC)c1OC (configuration not stated) noted as 1
